# System: OVCAR-8 ovarian
# protocolSummary: NCI tumour cell line growth inhibition, 48 h
This listing pairs compounds with measured GI50.

Examples from the recorded data:
> print(dat)
                                   compound  measuredresult
1  NCCCCCCn1c2c(c3ccccc3c1=O)C(=O)c1ccccc1-2         1.54 µM
2  CCC1=C(C)c2cc3[n-]c(cc4nc(c(C=O)c5[n-]c(cc1n2)c(C)c5CC)C(C)=C4CC)c(C)c3CC.[Ni+2]        > 100 µM
3  O=C1OC(c2cccc(C(F)(F)F)c2)c2ccc3ccccc3c21 (stereo not given)        > 100 µM
4  C[C@H](O)CNc1cc(-c2[nH]c3cccnc3c2-c2ccc(F)cc2)ccn1       > 20.2 µM
5  COc1ccc(C(=O)n2nc(/C=C/c3ccc(O)c(OC)c3)cc2/C=C/c2ccc(O)c(OC)c2)cc1         0.86 µM

If you can, please state the reported GI50 value of O=C(O[C@H]1CN[C@H](C#Cc2cc3ncnc(Nc4ccc5c(cnn5Cc5ccccc5)c4)c3s2)C1)N1CCOCC1 .
6.4 µM

# iterate: CCN(CC)CCOc1nc2c3ccc(Cl)cc3nn2c2ccccc12
2.64 µM

Another compound to check: Cc1ccc(S(=O)(=O)NC2=NCCN2C(=S)SN2CCn3c2nsc3=S)cc1
24.3 µM

Also OCC#Cc1ccccc1C#CCCCCCCC#Cc1ccccc1C#CCO , if possible.
17 µM

Also need CC(C)CCC[C@@H](C)[C@H]1CCC2C3=CCn4c(=O)ccc(=O)n4C3CC[C@@]21C (stereo not given in full) , thanks.
0.485 µM

---

# System: SK-OV-3 ovarian
# protocolSummary: NCI tumour cell line growth inhibition, 48 h
parameterMeasured: TGI

Some entries whose results are on file:
> print(dat)
                                   molecule  measuredresult
1  O=P(O)(O)OC1OC(CO)C(O)C(O)C1O (stereo not drawn)        > 100 µM
2  COc1ccc(C(=O)n2nc(/C=C/c3ccc(O)c(OC)c3)cc2/C=C/c2ccc(O)c(OC)c2)cc1          1.8 µM

// lookup TGI for COc1cc(C2c3cc4c(cc3CC3COC(=O)N32)OCO4)cc(OC)c1OC (stereo not drawn)
> 100 µM

Now the same for CN(C)c1ccc(/C=c2/c3ccccc3n3c2cc(-c2ccc(Cl)cc2)[n+]3C)cc1
1.45 µM

// repeat for O=S(=O)(O)c1cc(N=Nc2c(O)ccc3ccccc23)c2c(S(=O)(=O)O)cccc2c1 and report
> 100 µM

Now this one: CN1C(=O)/C(=C/c2c(Cl)[nH]c3ccccc23)c2ccccc21
67.1 µM

Record: CC1CC(C)CN(S(=O)(=O)c2cc(Cl)c(Oc3ccc([N+](=O)[O-])cc3Cl)c(Cl)c2)C1 (stereo not drawn)
> 100 µM

Lookup CC(NNC(=S)N1CCCCCC1)c1cccnn1 (stereo not drawn)
20.7 µM

Quick one: O=c1c(O)c(-c2ccccc2)n(O)c2ccc(Cl)cc12
78.6 µM

---

# System: TK-10 renal
# protocolSummary: NCI tumour cell line growth inhibition, 48 h
Each record here notes measured TGI.

So what's the measured TGI for this one? C=C(Nc1ccc(OC)cc1OC)C(=O)Cc1cccc[n+]1[O-]
> 100 µM

What about O=C1/C(=C/c2cccc([N+](=O)[O-])c2)N=C(c2ccccc2)N1c1nc2c(Cl)cc(Cl)cc2s1 ?
> 100 µM

Next entry: CCOC(=O)C1N(S(=O)(=O)c2ccc(C)cc2)CCC12c1ccccc1NC2c1ccc(OC)c(OC)c1 (stereo not given)
> 100 µM

Item: O=c1c2c([nH]c3cc4c(cc13)OCO4)-c1ccccc1C2
78.5 µM

Try the compound S=C(N/N=C/c1ccccc1)NC12CC3CC(CC(C3)C1)C2
> 100 µM
